// provenance: the Human Domainome abundance scans (Beltran et al. 2025)

B1: Homeobox protein SIX6, residues 134 to 184; numbered along this chain, O95475 (parent)
chain: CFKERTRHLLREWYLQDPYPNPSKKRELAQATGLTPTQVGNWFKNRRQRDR

variants of: B1; assay: abundance fitness (aPCA) (normalised: wild type 0, dead -1); higher = more abundant; growth selection in yeast, the domain comes from the species named; conditions: Homo sapiens
outcomeMeasure: abundance fitness
Answer with a bare number; do not write a unit.

Lab book: abundance fitness of N21C noted as -0.079

Lab book: abundance fitness of D50C noted as -0.73

Lab book: abundance fitness of K24S noted as -0.192

Lab book: abundance fitness of K24D noted as -0.197

Lab book: abundance fitness of W42K noted as -0.952

Lab book: abundance fitness of P36E noted as 0.065

Lab book: abundance fitness of T37K noted as 0.568

Lab book: abundance fitness of R46T noted as -0.055

Lab book: abundance fitness of R26I noted as -0.382

Lab book: abundance fitness of G33R noted as -0.738

Lab book: abundance fitness of L28V noted as -0.378

Lab book: abundance fitness of T37W noted as -0.545

Lab book: abundance fitness of S23Y noted as -0.726

Lab book: abundance fitness of Q48F noted as -0.526

Lab book: abundance fitness of F43M noted as -0.94

Lab book: abundance fitness of R49D noted as -0.074

Lab book: abundance fitness of A31S noted as -0.292

Lab book: abundance fitness of N41W noted as -0.754

Lab book: abundance fitness of P22I noted as -0.618

Lab book: abundance fitness of R26W noted as -0.475

Lab book: abundance fitness of F43Y noted as -1.13

Lab book: abundance fitness of L34V noted as -0.861

Lab book: abundance fitness of Y19K noted as -0.239

Lab book: abundance fitness of N21I noted as -0.672

Lab book: abundance fitness of T32Q noted as -1.01

Lab book: abundance fitness of Q30V noted as -0.059

Lab book: abundance fitness of R49K noted as -0.203

Lab book: abundance fitness of N41T noted as -0.259

Lab book: abundance fitness of G40D noted as -0.503

Lab book: abundance fitness of T37R noted as 0.084

Lab book: abundance fitness of L28M noted as -0.04

Lab book: abundance fitness of N21Y noted as -0.725

Lab book: abundance fitness of G40A noted as 0.01

Lab book: abundance fitness of R49N noted as -0.287

Lab book: abundance fitness of N21T noted as 0.155

Lab book: abundance fitness of K24Y noted as -0.714

Lab book: abundance fitness of Q30L noted as -0.25

Lab book: abundance fitness of N21K noted as -0.417

Lab book: abundance fitness of K25F noted as -0.272

Lab book: abundance fitness of S23M noted as -0.257

Lab book: abundance fitness of E27P noted as -0.845

Lab book: abundance fitness of A29S noted as -0.058

Lab book: abundance fitness of L28H noted as -0.903

Lab book: abundance fitness of G33A noted as -0.712

Lab book: abundance fitness of N45W noted as -0.535

Lab book: abundance fitness of N21W noted as -0.817

Lab book: abundance fitness of L34Y noted as -0.587

Lab book: abundance fitness of A29V noted as -0.767

Lab book: abundance fitness of A29T noted as -1.07

Lab book: abundance fitness of F43K noted as -0.881

Lab book: abundance fitness of R51S noted as -0.646

Lab book: abundance fitness of N21E noted as -0.129

Lab book: abundance fitness of N45Q noted as -0.303

Lab book: abundance fitness of Q48P noted as -0.795

Lab book: abundance fitness of P18S noted as -0.458

Lab book: abundance fitness of Q38W noted as -0.742

Lab book: abundance fitness of P20A noted as -0.816

Lab book: abundance fitness of T37A noted as -0.005

Lab book: abundance fitness of R46H noted as -0.72

Lab book: abundance fitness of R46M noted as -0.344

Lab book: abundance fitness of R47S noted as -0.845

Lab book: abundance fitness of K44A noted as -0.195

Lab book: abundance fitness of T32N noted as -0.84

Lab book: abundance fitness of R51E noted as -0.094

Lab book: abundance fitness of E27W noted as -0.231

Lab book: abundance fitness of R46N noted as -0.037

Lab book: abundance fitness of P20K noted as -0.797

Lab book: abundance fitness of P22C noted as 0.146

Lab book: abundance fitness of R26Q noted as 0.264

Lab book: abundance fitness of R47F noted as -0.501

Lab book: abundance fitness of L34P noted as -0.747

Lab book: abundance fitness of L34K noted as -0.722

Lab book: abundance fitness of Y19F noted as -0.138

Lab book: abundance fitness of R46V noted as -0.465

Lab book: abundance fitness of G33Y noted as -0.741

Lab book: abundance fitness of L34A noted as -0.911

Lab book: abundance fitness of L34W noted as -0.548

Lab book: abundance fitness of Y19H noted as -0.364

Lab book: abundance fitness of F43N noted as -0.882

Lab book: abundance fitness of G40F noted as 0.225

Lab book: abundance fitness of A29E noted as -0.815

Lab book: abundance fitness of Q48A noted as -0.315

Lab book: abundance fitness of G33I noted as -0.936

Lab book: abundance fitness of L34R noted as -0.719

Lab book: abundance fitness of N21G noted as -0.238

Lab book: abundance fitness of N21F noted as -0.839

Lab book: abundance fitness of R47L noted as -0.633

Lab book: abundance fitness of T32S noted as -0.312

Lab book: abundance fitness of Y19R noted as -0.177

Lab book: abundance fitness of Q48H noted as 0.11

Lab book: abundance fitness of F43R noted as -0.92
